# Target system: T1, GDF15 mutant D289R (finger tip region), albumin fusion (human, UniProt Q99988 195-308)
# T1 construct: not shown: albumin fusion partner
# T1 chain: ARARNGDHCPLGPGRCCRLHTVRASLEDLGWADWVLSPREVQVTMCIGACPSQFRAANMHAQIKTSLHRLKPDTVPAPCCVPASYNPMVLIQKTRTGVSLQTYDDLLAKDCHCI
# Test protocol: direct ELISA on coated albumin-fusion GDF15 variant
Measured parameter: binding result

[
  {
    "Binder": "ABGDF15-B (antibody, human IgG1, lambda, V domains shown, captured through anti-human Fc in the Biacore assay) VH: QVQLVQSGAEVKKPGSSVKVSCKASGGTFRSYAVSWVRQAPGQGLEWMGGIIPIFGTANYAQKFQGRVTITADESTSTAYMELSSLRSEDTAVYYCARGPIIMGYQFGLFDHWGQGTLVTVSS VL: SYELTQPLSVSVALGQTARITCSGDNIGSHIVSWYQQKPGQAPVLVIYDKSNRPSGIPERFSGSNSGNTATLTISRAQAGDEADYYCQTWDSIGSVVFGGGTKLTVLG",
    "binding result": "binds"
  },
  {
    "Binder": "ABGDF15-C (antibody, human IgG1, lambda, V domains shown, captured through anti-human Fc in the Biacore assay) VH: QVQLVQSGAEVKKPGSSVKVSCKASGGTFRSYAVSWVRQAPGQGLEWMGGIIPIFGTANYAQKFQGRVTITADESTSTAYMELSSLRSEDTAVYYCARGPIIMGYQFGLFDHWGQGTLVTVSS VL: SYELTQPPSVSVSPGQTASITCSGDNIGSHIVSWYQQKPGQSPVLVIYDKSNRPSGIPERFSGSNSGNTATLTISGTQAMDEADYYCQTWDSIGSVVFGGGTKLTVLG",
    "binding result": "binds"
  },
  {
    "Binder": "ABGDF15-F (antibody, human IgG1, lambda, V domains shown, captured through anti-human Fc in the Biacore assay) VH: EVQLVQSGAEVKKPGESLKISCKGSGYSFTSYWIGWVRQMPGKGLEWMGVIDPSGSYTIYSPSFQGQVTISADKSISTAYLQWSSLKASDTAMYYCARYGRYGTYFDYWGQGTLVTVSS VL: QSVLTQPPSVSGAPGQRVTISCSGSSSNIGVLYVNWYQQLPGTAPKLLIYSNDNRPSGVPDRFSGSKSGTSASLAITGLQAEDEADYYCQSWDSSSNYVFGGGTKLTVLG",
    "binding result": "binds"
  },
  {
    "Binder": "ABGDF15-A (antibody, human IgG1, kappa, V domains shown, captured through anti-human Fc in the Biacore assay) VH: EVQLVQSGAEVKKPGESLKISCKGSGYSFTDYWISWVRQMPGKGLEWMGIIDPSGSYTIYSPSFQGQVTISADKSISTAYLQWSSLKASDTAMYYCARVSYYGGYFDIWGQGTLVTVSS VL: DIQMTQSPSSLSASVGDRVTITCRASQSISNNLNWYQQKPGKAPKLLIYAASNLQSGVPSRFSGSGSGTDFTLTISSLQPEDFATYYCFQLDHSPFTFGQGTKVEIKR",
    "binding result": "binds"
  }
]

Let's switch to this binder now.
Prompt line: GET /values?readout=binding result&item= ABGDF15-G (antibody, human IgG1, kappa, V domains shown, captured through anti-human Fc in the Biacore assay) VH: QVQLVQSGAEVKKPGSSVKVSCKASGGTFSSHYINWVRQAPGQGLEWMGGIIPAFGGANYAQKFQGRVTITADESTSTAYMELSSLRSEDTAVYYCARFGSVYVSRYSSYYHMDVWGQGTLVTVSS VL: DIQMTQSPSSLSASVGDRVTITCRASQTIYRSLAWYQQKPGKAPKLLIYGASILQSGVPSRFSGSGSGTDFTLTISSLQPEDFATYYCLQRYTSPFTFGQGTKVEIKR
Response line: binds
